From: patent US20250163186A1

# system tested: T1, CH2-4 constant domains of human IgE linked to a transmembrane protein, on 293 cells (human, UniProt P01854-1 104-428)
# T1 construct: domain: CH2-4 constant domains; also called human IgE-expressing 293 cells
# T1 sequence (P01854 other isoform, or with tags, fused parts or gaps): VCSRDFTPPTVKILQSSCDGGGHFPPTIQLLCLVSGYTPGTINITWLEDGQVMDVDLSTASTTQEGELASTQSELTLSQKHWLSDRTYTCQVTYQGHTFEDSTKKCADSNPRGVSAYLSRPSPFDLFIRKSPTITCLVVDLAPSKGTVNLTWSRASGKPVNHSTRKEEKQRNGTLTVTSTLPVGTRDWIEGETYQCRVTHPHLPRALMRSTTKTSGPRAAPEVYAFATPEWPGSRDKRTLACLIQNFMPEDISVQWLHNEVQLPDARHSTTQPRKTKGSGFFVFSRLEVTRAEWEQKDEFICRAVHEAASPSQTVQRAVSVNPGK
# experimental protocol: flow cytometry, 293 cells expressing human IgE CH2-4
Each entry below carries its reported Kd.
attribute measured: Kd (nM)

hzB10v27-NNT (Fc fusion, monomeric) VHH-Fc: EVQLLESGGGEVQPGGSLRLSCVASGLTFSSYNMGWLRQAPGKEREFVGLSGSSSTSTYYAESVKGRFTISRDNSKNTVYLQMNSLRAEDTAVYYCAARRLLSTYWSDRSWDFWGQGTQVTVEPGGPSVFLFPPKPKDTLMISRTPEVTCVVVDVSHEDPEVKFNWYVDGVEVHNAKTKPREEQYNSTYRVVSVLTVLHQDWLNGKEYKCKVSNKALPAPIEKTISKAKGQPREPQVYTLPPSRDELTKNQVNLTCLVKGFYPSDIAVEWESNGQPENNYKTTPPVLDSDGSFFLNSTLTVDKSRWQQGNVFSCSVMHEALHNHYTQKSLSLSPGK : 1.16
hzB10v34-NNT (Fc fusion, monomeric) VHH-Fc: EVQLLESGGGEVQPGGSLRLSCVASGLTFSSYNMGWVRQAPGKEREFVSLSGSSSTSTYYAESVKGRFTISRDNSKNTVYLQMNSLRAEDTAVYYCAARRLLSTYWSDRSWDFWGQGTQVTVEPGGPSVFLFPPKPKDTLMISRTPEVTCVVVDVSHEDPEVKFNWYVDGVEVHNAKTKPREEQYNSTYRVVSVLTVLHQDWLNGKEYKCKVSNKALPAPIEKTISKAKGQPREPQVYTLPPSRDELTKNQVNLTCLVKGFYPSDIAVEWESNGQPENNYKTTPPVLDSDGSFFLNSTLTVDKSRWQQGNVFSCSVMHEALHNHYTQKSLSLSPGK : 0.55
